# system_under_test: prefusion-stabilized Nipah virus fusion (F) glycoprotein, construct NiVF_prefusion (Nipah virus, Malaysian strain, stabilised)
quantity_measured: binding result

201805_NiV_P2_D4 (antibody, V domains shown) VH: EVQLQQSGAELVKPGASVKMSCKASGYTFTDYSIHWVKQKSGQGLEWIGWFYPGSGSIKNSDKVKDEAILTADKSSSTVYLELSSLTSEDSAVYFCARHGGGYDYGRAWFVYWGQGTLVTLEQ VL: FTQMTQSPKFLLVSAGDRVTITCKASQSVSNDVAWYQQKPGQSPKLLIYYASNRYTGVPDRFTGSGYGTDFTFTISTVQAEDLAVYFCQQDYGSPYTFGGGTKLKN :: binds
201805_NiV_PL3_E1 (antibody, V domains shown) VH: RFRLQQSGAELVKPGASVKLSCRASGYIFTSYWMHWVKQRPGQGLEWIGMIHPNSGSPNYNEKFKSKATLTVDNSSSTAYMQLSSLTSEDSAVYYCARTLLGQGAWFAYWGQGTLVTLAA VL: YIQMTLSPATLSVTPGDRVSLSCRASQSISDFLHWYQQKSHESPRLLIKYASQSISGIPSRFSGSGSGSDFTLSINSVEPEDVGVYYCQNGHSFPYTFGGGTKLKT :: binds
201805_NiV_PL3_H6 (antibody, V domains shown) VH: EVQLEESGGGLVKPGGSLKLSCTASGFAFSTYDMSWVRQTPEKRLEWVAYISSGGGSTYYPDSVKGRFTISRDNARNTLYLQMSSLKSDDTAMYYCVRDDGYYGGAWFAYWGQGTLVTVSA VL: DIQMTQTTSSLSASLGDRVTISCRASQDIRNYLNWYQQKPDGTVKLLIYYTSRFHSGVPSRFSGSGSGTDYSLTINNLEQEDITTYFCQQGYILPWTFGGGTKLEIK :: binds
